target: Gamma-aminobutyric acid receptor subunit gamma-1 (Rattus norvegicus); experiment: Inhibition of [3H]muscimol binding to Gamma-aminobutyric acid (GABA-A) receptor
Sequence (P23574 whole entry): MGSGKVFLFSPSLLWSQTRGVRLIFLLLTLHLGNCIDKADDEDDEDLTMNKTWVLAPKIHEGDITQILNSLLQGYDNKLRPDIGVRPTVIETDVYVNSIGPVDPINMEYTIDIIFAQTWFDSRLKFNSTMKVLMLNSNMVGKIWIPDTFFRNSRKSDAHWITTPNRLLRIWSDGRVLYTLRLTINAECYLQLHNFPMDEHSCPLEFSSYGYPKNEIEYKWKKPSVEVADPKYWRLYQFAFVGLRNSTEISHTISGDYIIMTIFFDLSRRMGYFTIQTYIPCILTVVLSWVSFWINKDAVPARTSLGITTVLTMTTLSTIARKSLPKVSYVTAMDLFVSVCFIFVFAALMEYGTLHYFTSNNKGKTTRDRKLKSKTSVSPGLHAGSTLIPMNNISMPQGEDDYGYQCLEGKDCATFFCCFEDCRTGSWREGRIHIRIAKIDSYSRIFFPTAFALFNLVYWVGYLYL
Property Measured: IC50

INSERT INTO assay_data (compound, measured_result) VALUES
  ('CSc1ccc2c(c1)N(CCC1CCCCN1C)c1ccccc1S2 (stereo unspecified)', '> 1000 nM');

###

biological target: D(2) dopamine receptor (Rattus norvegicus, UniProt P61169); experiment: In vitro affinity for rat striatal Dopamine receptor D2 labeled with [3H]spiperone
Sequence (P61169 whole entry): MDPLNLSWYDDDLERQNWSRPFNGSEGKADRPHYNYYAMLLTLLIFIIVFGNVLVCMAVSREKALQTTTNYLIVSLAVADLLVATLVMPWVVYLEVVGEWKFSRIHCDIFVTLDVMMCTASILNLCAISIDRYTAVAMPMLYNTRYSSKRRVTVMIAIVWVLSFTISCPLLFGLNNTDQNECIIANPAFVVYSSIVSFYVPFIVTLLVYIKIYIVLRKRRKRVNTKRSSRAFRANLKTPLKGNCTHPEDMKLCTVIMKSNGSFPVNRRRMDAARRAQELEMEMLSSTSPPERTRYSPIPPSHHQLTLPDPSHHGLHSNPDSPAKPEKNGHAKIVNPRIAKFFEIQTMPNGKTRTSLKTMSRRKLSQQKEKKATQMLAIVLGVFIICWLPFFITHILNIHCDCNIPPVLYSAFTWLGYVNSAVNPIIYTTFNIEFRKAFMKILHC
pIC50: −log10 of the molar value.
pIC50 by entry:
Property Measured: pIC50

INSERT INTO measurements (compound, tested_system, property_measured, inequality_operator, measured_result) VALUES
  ('Cl.c1ccc2c(N3CCNCC3)nsc2c1', 'D(2) dopamine receptor (Rattus norvegicus, UniProt P61169)', 'pIC50', '<', 6.00),
  ('Cl.c1ccc2c(N3CCNCC3)noc2c1', 'D(2) dopamine receptor (Rattus norvegicus, UniProt P61169)', 'pIC50', '<', 6.00),
  ('O=C1SC2(CCCC2)C(=O)N1CCCCN1CCCN(c2noc3ccccc23)CC1', 'D(2) dopamine receptor (Rattus norvegicus, UniProt P61169)', 'pIC50', '<', 6.00),
  ('O=C1CC2(CCCC2)CC(=O)N1CCCCN1CCN(c2noc3cc(Cl)ccc23)CC1', 'D(2) dopamine receptor (Rattus norvegicus, UniProt P61169)', 'pIC50', '=', 7.23),
  ('CCCC1(C)CC(=O)N(CCCCN2CCN(c3nsc4ccccc34)CC2)C(=O)C1.Cl', 'D(2) dopamine receptor (Rattus norvegicus, UniProt P61169)', 'pIC50', '=', 7.26),
  ('OC(CCCN1CCN(c2nsc3ccccc23)CC1)c1ccc(F)cc1 (stereo unspecified)', 'D(2) dopamine receptor (Rattus norvegicus, UniProt P61169)', 'pIC50', '=', 8.70),
  ('CC1CN(c2nsc3ccccc23)CCN1CCCCN1C(=O)CC2(CCCC2)CC1=O (stereo unspecified)', 'D(2) dopamine receptor (Rattus norvegicus, UniProt P61169)', 'pIC50', '=', 6.69),
  ('CC1(C)CC(=O)N(CCCCN2CCN(c3nsc4ccccc34)CC2)C(=O)C1', 'D(2) dopamine receptor (Rattus norvegicus, UniProt P61169)', 'pIC50', '=', 7.64),
  ('O=C1SC2(CCCC2)C(=O)N1CCCCN1CCN(c2noc3ccccc23)CC1', 'D(2) dopamine receptor (Rattus norvegicus, UniProt P61169)', 'pIC50', '=', 7.11),
  ('O=C1CC2(CCCC2)CC(=O)N1CCCCN1CCCN(c2nsc3ccccc23)CC1', 'D(2) dopamine receptor (Rattus norvegicus, UniProt P61169)', 'pIC50', '=', 6.63),
  ('CCC1(CC)CC(=O)N(CCCCN2CCN(c3nsc4ccccc34)CC2)C(=O)C1.Cl', 'D(2) dopamine receptor (Rattus norvegicus, UniProt P61169)', 'pIC50', '=', 7.31);
